test system: Salmonella typhi; assay: Antimicrobial activity against Salmonella typhosa after 24 hrs by well diffusion method; type: functional, Salmonella enterica subsp. enterica serovar Typhi
Assign Y whenever inhibition zone (IZ) does not fall below 20 mm; assign N whenever it does.

Example entries begin here.
Cc1ccccc1-n1cc(Cn2c(-c3cccc(F)c3)nc3ccccc32)nn1 :: N
COc1ccc(-n2cc(Cn3c(-c4cccc(F)c4)nc4ccccc43)nn2)cc1 :: Y
Fc1cccc(-c2nc3ccccc3n2Cc2cn(-c3ccccc3)nn2)c1 :: N
Fc1cccc(-c2nc3ccccc3n2Cc2cn(-c3ccc(F)c(F)c3)nn2)c1 :: Y

INPUT: Reported inhibition zone (IZ) at or above 20 mm? Fc1ccc(-n2cc(Cn3c(-c4cccc(F)c4)nc4ccccc43)nn2)cc1
OUTPUT: N

INPUT: Reported inhibition zone (IZ) at or above 20 mm? Fc1cccc(-c2nc3ccccc3n2Cc2cn(-c3ccc(F)c(F)c3F)nn2)c1
OUTPUT: Y

INPUT: Reported inhibition zone (IZ) at or above 20 mm? Fc1cccc(-c2nc3ccccc3n2Cc2cn(-c3ccc(F)cc3F)nn2)c1
OUTPUT: Y

INPUT: Reported inhibition zone (IZ) at or above 20 mm? COc1ccccc1-n1cc(Cn2c(-c3cccc(F)c3)nc3ccccc32)nn1
OUTPUT: Y

INPUT: Reported inhibition zone (IZ) at or above 20 mm? Fc1cccc(-c2nc3ccccc3n2Cc2cn(-c3ccc(C(F)(F)F)cc3)nn2)c1
OUTPUT: N

INPUT: Reported inhibition zone (IZ) at or above 20 mm? Cc1ccc(-n2cc(Cn3c(-c4cccc(F)c4)nc4ccccc43)nn2)cc1
OUTPUT: N

INPUT: Reported inhibition zone (IZ) at or above 20 mm? Cc1ccc(-n2cc(Cn3c(-c4cccc(F)c4)nc4ccccc43)nn2)c(F)c1
OUTPUT: N

###

assay: Cytotoxicity against african green monkey Vero C1008 cells at 6.25 to 50 ug/mL by neutral-red uptake assay; assay type: cell-based; conditions: chlorocebus sabaeus
attribute-measured: Activity

Fc1cccc(-c2nc3ccccc3n2Cc2cn(-c3ccc(F)c(F)c3)nn2)c1 :: Non-toxic
Fc1cccc(-c2nc3ccccc3n2Cc2cn(-c3ccc(F)cc3F)nn2)c1 :: Non-toxic
Fc1cccc(-c2nc3ccccc3n2Cc2cn(-c3ccc(C(F)(F)F)cc3)nn2)c1 :: Non-toxic
Cc1ccccc1-n1cc(Cn2c(-c3cccc(F)c3)nc3ccccc32)nn1 :: Non-toxic

INPUT: Please give the measured Activity for this molecule: COc1ccccc1-n1cc(Cn2c(-c3cccc(F)c3)nc3ccccc32)nn1
OUTPUT: Non-toxic

INPUT: Please give the measured Activity for this molecule: Fc1ccc(-n2cc(Cn3c(-c4cccc(F)c4)nc4ccccc43)nn2)cc1
OUTPUT: Non-toxic
